I'd appreciate it if you could supply EC50 values for the items below.
Target: T1, human CLDN9 (UniProt O95484 1-217)
T1 chain: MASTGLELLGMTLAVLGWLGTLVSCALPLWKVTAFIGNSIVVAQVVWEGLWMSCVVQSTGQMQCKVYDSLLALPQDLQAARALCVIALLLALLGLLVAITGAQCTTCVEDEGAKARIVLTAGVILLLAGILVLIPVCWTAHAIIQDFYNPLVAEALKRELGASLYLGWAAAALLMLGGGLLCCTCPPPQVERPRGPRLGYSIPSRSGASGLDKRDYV
Assay: HEK293E cell binding; avid
Answers are plain numbers, in µg/mL.

Provide EC50 for all items below, preserving their order.
1. XENP35064 H2_L1.21 (antibody, V domains shown) VH: EVQLVQSGAEVKKPGESLRISCKTSGYTFTEYTMHWVRQMPGKSLEWMGGIDPNNGNTHYNQKFQGHVTISVDKSISTAYLQWSSLKASDTAMYYCARIYYFGRLYFDFWGAGTLVTVSS VL: DIQMTQSPSSLSASVGDRVTITCQASEDIYNRLAWYQQKPGKVPKLLISGATNLETGVPSRFSGSGSGKDYTFTISSLQPEDIATYYCQQYWSSPLTFGGGTKVEIKR
2. XENP35093 (having C6-30 H1.9_L1) (antibody, V domains shown) VH: QVQLVQSGAEVKKPGASVKVSCKTSGYTFTEYTMHWVRQAPGQSLEWMGGIDPNNANTHYNQKFQGRVTITVDKSASTAYMELSSLRSEDTAVYYCARIYYFGRLYFDFWGAGTLVTVSS VL: DIQMTQSPSSLSASVGDRVTITCQASEDIYNRLAWYQQKPGKVPKLLISGATSLETGVPSRFSGSGSGKDYTFTISSLQPEDIATYYCQQYWSSPLTFGGGTKVEIKR

Data returned:
14.1
53.1
